Entry source: the supplement of paper PMC10065799

System: c-Src
Assay: phosphorylation enrichment, bacterial display (enrichment ratio); higher = better substrate or ligand; peptides without Tyr show the background
Here the recorded phosphorylation enrichment is given for each entry.
Response field accepts a number only; no unit should be typed.

LGKLTYPVGFW [NTHL1_Y177_I176T] : 1.35

Which phosphorylation enrichment reading was recorded for the sequence LYSNAYLNDLA [ALDH1A1_Y119] ?
1.1

---

Target: c-Src SH2
Experiment: SH2 binding enrichment of the phosphorylated peptide, bacterial display (enrichment ratio); higher = better substrate or ligand; peptides without Tyr show the background
Catalogue of sequences with associated SH2 binding enrichment
Just the number, please, no unit attached.

Previously resolved entries follow.
KVPELYEIHKE [BCR_Y554] : 0.701
EASEQHLTKAS [NRCAM_Y739_Y739H] : 0.53

Lab note: next sequence to report on.
// query SH2 binding enrichment value for entry LQLLGDRPVFS [CHST6_Y358_Y358D_YF]
0.532

---

Molecular target: SHP2-C SH2
Assay: SH2 binding enrichment of the phosphorylated peptide, bacterial display (enrichment ratio); higher = better substrate or ligand; peptides without Tyr show the background
Each item that follows carries a reported SH2 binding enrichment.
# output: bare number, no unit

KKYPDYIQIAM [SGMS2_Y59] : 0.787

Item LPPGEYVVVPS [CAPN1_Y494] with SHP2-C SH2 - SH2 binding enrichment?
0.795

// repeat for RRVLVYVGRGA [QDPR_Y16_G17V] and report
0.818

Moving on to QWPGPYDRPGA [HNRNPH2_Y210_R206W]
0.789

HAVFIYDICHV [TWNK_Y508_V507I_YF] ?
0.793

Try DVVKDCAFVHM [RBM14_Y114_Y114C] next.
0.811

Also need EKKKFYDTKIE [CASP5_Y104_YF] , thanks.
0.437

Follow-up entry: ETMNKYDLSGR [MYEF2_Y164]
0.639

And then EVESPYEVHDF [GIGYF2_Y1168_YF] , what is it?
0.832

Now give it for KQVEQYMSFHK [HCN1_Y417] too.
0.583

Repeat with LWPIWYRCRRP [MRGPRX1_Y130_H133R]
0.857

// same read-out, input: CQASLYPSNHD [LRIG1_Y996_G993A]
0.694

Again, but for HDKEFYSVHNK [MET_Y1235_Y1230H_YF]
0.466

# repeat for IHSGIYFKPES [L2HGDH_Y102_YF]
0.829

Queued: LSSEMCVKSFT [F5_Y2149_Y2149C_YF]
0.603

Follow-up entry: LVQAEYWHDRI [PPT1_Y185_P189R]
0.511

Same thing, different sequence: APGNAYGDAGF [SYP_Y250_D248N_YF]
0.639

Next record, please: KTDKKYLMIKE [BAG3_Y451_E455K]
0.836

---

Target: c-Src SH2
Experiment: SH2 binding enrichment of the phosphorylated peptide, bacterial display (enrichment ratio); higher = better substrate or ligand; peptides without Tyr show the background
Give MET when the value for SH2 binding enrichment is at least 0.6. Give NOT MET when it is less.

LREKVYASLEA [RXRA_Y397] : MET
EDGCIYPGTIA [SMN1_Y109_A111G] : MET

Answer whether SH2 binding enrichment of LKYAIYFEARE [LAMA2_Y1258] is greater than or equal to 0.6.
NOT MET

Quick one: CSHMFYGKQCC [ADAMTS16_Y1211_K1209M]
MET

Query FIGVTYKNEED [PDGFRA_Y993_YF] next
NOT MET

---

Below, each of the sequences is paired with its reported phosphorylation enrichment value.
Target: FGFR1 (UniProt P11362)
Sequence (P11362 whole entry, looked up): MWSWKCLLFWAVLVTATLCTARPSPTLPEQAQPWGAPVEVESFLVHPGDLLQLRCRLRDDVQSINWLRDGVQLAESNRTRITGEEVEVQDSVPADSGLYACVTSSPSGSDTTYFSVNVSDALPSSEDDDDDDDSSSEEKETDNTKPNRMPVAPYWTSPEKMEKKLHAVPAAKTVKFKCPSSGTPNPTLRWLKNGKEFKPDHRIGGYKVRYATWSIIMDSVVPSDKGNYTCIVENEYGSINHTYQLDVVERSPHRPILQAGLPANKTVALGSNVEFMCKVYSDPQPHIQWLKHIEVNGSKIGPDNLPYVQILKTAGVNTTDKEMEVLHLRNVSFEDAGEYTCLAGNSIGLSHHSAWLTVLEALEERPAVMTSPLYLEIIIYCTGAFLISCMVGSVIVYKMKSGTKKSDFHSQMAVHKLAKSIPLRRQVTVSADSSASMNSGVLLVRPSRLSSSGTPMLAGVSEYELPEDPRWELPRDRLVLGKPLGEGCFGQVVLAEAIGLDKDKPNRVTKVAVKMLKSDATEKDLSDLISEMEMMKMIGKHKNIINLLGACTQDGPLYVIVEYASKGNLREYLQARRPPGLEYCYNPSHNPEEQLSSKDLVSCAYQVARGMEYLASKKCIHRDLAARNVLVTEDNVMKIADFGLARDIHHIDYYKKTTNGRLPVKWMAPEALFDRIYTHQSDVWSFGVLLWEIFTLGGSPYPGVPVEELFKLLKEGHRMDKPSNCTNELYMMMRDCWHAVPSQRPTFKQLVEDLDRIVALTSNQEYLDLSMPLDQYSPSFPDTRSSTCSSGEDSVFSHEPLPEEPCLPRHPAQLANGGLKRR
Assay: phosphorylation enrichment, bacterial display (enrichment ratio); higher = better substrate or ligand; peptides without Tyr show the background
# output: bare number, no unit

RGFDTYFGYLL [ARSB_Y165] : 3.58
KANEYYPVVII [ADAMTS18_Y765_L769I] : 12.8
VNKGGYFSVNL [C3orf33_Y164_S160N] : 0.599
YLEKYYKFGCR [NNMT_Y25_S29C] : 0.569
CPEARYNRSPI [PTAR1_Y42] : 0.419

What does the record list as phosphorylation enrichment for FPILNYKDIRK [CFAP221_Y798_M795I] ?
0.431

And then LPPGEYVVVPS [CAPN1_Y494] , what is it?
2.83

And then RRFLFYFSFLL [PTEN_Y177_V175L_YF] , what is it?
0.472

Another: KIVATYRLCSE [DNAH3_Y1586]
0.571

And what about the sequence GISDEYHVIRH [GCDH_Y398] ?
4.48

Again, but for CQASLYPSNHD [LRIG1_Y996_G993A]
0.577

Please answer likewise for SFKNKYGMVAQ [APOB_Y276_YF]
0.335

---

Entries and their measured phosphorylation enrichment follow.
System: c-Abl (mouse)
Test: phosphorylation enrichment, bacterial display (enrichment ratio); higher = better substrate or ligand; peptides without Tyr show the background

Example cases with answers are listed next.
ELAKFYKLHHI [AK7_Y391_N389K_YF] : 0.621
LPPGEYVVVPS [CAPN1_Y494] : 1.31
PEADKYRLTFA [FGG_Y300_YF] : 0.918

Turning to the following sequence.
// query phosphorylation enrichment value for entry THQKSYQPGRK [CEFIP_Y210_N208K]
0.35

---

Biological target: EPHB2 (UniProt P29323)
Sequence (P29323 whole entry, looked up): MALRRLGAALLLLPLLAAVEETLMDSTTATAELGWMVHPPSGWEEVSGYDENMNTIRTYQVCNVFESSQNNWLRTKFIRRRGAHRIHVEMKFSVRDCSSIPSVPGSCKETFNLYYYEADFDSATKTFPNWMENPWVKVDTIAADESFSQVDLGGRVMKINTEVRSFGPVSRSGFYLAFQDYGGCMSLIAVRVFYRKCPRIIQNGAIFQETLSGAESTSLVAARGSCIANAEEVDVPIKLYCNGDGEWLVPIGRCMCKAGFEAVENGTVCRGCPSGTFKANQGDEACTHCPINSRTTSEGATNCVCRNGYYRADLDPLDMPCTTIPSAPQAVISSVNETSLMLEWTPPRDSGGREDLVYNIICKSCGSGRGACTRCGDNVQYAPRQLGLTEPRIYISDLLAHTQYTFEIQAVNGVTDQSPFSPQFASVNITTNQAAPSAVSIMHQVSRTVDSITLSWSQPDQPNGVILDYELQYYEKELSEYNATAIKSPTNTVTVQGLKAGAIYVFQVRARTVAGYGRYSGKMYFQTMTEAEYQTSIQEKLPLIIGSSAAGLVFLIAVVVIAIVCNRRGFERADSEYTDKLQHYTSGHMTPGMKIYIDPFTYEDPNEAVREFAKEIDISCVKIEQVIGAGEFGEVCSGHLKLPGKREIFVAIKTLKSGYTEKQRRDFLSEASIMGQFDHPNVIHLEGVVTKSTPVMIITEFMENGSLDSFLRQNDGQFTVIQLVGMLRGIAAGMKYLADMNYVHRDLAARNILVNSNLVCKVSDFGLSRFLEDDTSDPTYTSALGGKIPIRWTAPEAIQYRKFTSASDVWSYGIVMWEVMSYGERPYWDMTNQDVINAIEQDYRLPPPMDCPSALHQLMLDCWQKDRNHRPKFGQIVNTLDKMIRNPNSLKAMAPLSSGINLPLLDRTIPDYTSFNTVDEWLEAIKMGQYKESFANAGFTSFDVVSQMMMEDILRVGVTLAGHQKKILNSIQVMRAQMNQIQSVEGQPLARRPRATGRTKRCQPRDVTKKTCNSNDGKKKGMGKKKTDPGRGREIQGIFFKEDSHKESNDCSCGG
Experiment: phosphorylation enrichment, bacterial display (enrichment ratio); higher = better substrate or ligand; peptides without Tyr show the background
List of phosphorylation enrichment values.
Answer with a bare number; do not write a unit.

Lookup: phosphorylation enrichment / EPHB2 (UniProt P29323) / SGVSFYINLCQ [IGF2R_Y2025_N2020S_YF]
0.695

---

Here, each record is paired with measured phosphorylation enrichment data.
System: AncSZ
Assay: phosphorylation enrichment, bacterial display (enrichment ratio); higher = better substrate or ligand; peptides without Tyr show the background
# output: bare number, no unit

// worked examples, phosphorylation enrichment included
SGVSFYINLCQ [IGF2R_Y2025_N2020S_YF] : 1.5
VQEDIYDEFVE [ALDH2_Y332] : 1.2
NNPAFYVLEGV [INPPL1_Y987_YF] : 0.956
ASYGPYTRVQS [FOXL2_Y258] : 0.551
KGSEGYLAAIY [NF1_Y2503_T2507I] : 0.78
GEEIKYTLWLS [OTC_Y55_M56T] : 1.35

Would you mind telling me what phosphorylation enrichment value was observed for ISSLRYKLLEE [TRPC6_Y896_E897K] ?
0.786

Now consider QTEGEYSSLEH [IDH3B_Y171] and answer again.
1.79

Proceed to GAVGHYVLAER [HFE_Y342_M339V]
0.865

Input DSILVYQGKEQ [USH2A_Y1909]
0.717

Entry to check: AVSHRYDLGGL [QPRT_Y162_A158V]
0.515

What do we get for FETSHYLASPD [CTNND2_Y1217_P1218L_YF] ?
0.791

# repeat for LFDPDYMKVIL [CYP4A22_Y104_YF]
1.76

Field entry: SSPVLYLSPET [TJP1_Y931_P930L]
1.21

---

Reported phosphorylation enrichment values for the following sequences.
Tested on: c-Abl (mouse)
Assay: phosphorylation enrichment, bacterial display (enrichment ratio); higher = better substrate or ligand; peptides without Tyr show the background
// response body must contain only the number

Data request, read-out phosphorylation enrichment, for DGQVNYEELVQ [CALM1_Y139_F142L]
0.781

Now consider EREFKYGAHNF [OAT_Y50_YF] .
0.401

// repeat for LPEVSYVKAID [GLRA1_Y307_K304E] and report
0.132

---

Target: Fes (UniProt P07332)
Sequence (P07332 whole entry, looked up): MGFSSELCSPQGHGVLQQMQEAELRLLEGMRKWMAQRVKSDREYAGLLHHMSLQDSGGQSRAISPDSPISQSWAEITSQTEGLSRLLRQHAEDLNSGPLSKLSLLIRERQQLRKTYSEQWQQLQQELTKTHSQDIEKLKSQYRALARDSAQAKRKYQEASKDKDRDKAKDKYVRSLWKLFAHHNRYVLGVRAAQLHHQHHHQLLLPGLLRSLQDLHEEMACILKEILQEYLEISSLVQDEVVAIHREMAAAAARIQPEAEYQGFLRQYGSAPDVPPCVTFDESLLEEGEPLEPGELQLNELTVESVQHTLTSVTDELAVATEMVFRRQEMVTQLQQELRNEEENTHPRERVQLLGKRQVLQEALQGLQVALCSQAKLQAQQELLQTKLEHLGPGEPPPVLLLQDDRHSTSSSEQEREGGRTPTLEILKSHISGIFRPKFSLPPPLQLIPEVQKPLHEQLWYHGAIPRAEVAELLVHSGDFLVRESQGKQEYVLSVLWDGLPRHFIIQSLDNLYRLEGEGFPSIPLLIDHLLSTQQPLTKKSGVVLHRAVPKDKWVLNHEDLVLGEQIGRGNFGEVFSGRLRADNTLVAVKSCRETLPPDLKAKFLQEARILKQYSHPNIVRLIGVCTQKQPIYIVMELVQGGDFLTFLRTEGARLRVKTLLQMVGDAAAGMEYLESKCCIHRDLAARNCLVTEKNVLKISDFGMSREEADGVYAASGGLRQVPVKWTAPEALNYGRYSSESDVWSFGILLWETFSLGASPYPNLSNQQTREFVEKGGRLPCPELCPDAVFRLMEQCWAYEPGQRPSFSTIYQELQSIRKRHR
Assay: phosphorylation enrichment, bacterial display (enrichment ratio); higher = better substrate or ligand; peptides without Tyr show the background
phosphorylation enrichment of 1 or higher: yes. Under 1: no.

QMWLKYSQSDL [SMC1A_Y714_R711W] : yes

Hi, just wondering whether SFPHEYGSQEG [RBM10_Y48_R46H_YF] shows phosphorylation enrichment of 1 or higher.
no

And then FPRAWYRRSIA [KIAA1109_Y4272] , what is it?
no

Try the sequence DRPASYLEKVR [KRT13_Y118_L115P]
no

Check FDDDDYDTDFV [BLM_Y296] too.
yes

---

Target: Jak2 (UniProt O60674)
Sequence (O60674 whole entry, looked up): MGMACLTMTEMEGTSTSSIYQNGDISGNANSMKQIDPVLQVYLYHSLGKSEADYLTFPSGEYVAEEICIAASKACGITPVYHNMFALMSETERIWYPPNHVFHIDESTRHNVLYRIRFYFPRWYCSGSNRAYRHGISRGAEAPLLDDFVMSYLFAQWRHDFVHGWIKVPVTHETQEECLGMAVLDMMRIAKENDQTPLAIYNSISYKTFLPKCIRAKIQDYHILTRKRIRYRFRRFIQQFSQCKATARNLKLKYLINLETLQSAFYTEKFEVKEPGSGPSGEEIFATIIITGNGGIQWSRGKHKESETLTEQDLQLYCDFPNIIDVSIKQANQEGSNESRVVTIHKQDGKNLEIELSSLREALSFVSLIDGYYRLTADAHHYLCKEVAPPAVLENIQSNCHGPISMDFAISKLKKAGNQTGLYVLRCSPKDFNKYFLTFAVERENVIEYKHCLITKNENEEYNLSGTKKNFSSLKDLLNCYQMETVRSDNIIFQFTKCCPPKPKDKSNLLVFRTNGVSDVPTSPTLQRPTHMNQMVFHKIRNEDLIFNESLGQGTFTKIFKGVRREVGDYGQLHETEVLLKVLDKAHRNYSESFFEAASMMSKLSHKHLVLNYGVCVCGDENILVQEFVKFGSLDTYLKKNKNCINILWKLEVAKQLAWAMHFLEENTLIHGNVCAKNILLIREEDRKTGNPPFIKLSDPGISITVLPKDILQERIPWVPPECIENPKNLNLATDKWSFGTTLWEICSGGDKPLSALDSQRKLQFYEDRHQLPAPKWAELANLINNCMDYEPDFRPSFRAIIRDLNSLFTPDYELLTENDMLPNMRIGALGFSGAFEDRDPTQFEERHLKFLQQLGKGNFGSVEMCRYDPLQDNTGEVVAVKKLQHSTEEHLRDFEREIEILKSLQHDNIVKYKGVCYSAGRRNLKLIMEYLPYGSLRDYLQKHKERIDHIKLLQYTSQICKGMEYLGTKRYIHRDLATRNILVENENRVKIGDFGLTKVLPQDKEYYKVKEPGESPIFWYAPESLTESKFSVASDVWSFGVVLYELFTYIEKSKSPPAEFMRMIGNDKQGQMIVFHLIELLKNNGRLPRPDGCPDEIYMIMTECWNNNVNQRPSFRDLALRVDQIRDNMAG
Assay: phosphorylation enrichment, bacterial display (enrichment ratio); higher = better substrate or ligand; peptides without Tyr show the background
Tag: Satisfied if measured phosphorylation enrichment is not below 1, Not satisfied if it is.

IHSGIYYKPES [L2HGDH_Y102] : Satisfied

Entry KAIMTYVPSFF [ACTN4_Y260_S262P_YF] : is its phosphorylation enrichment no less than 1?
Not satisfied

Next entry: MGSFNYLGFAR [SPTLC2_Y178_YF]
Satisfied

Can you handle HNLDFYKETTN [FGFR3_Y648_K650E_YF] next?
Satisfied
